Biological target: TNKS2 (Homo sapiens, UniProt Q9H2K2)
Sequence (Q9H2K2 959-1164): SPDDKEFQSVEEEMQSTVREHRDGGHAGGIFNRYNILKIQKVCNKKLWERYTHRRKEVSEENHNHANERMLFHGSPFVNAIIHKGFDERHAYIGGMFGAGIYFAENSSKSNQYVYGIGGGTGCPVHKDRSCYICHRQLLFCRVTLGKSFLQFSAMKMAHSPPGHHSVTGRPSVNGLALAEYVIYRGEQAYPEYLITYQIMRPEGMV
Test: NAD+ quantification activity assay, TNKS2
Assay type: biochemical
Settings: TNKS2 IC50, NAD+ 500 nM
Protocol: The activity assay used to measure the potency of the compounds against TNKS2 is based on the quantification of NAD^+[38]. […] The compounds were stored in 100% DMSO at −20 °C. […] Control reactions were used to exclude the effect of compound fluorescence and quenching from the calculations. […] The pIC50 values were calculated and fitted with nonlinear regression using 4-parameters with GraphPad Prism (version 5.0 for windows). […]
QUANTITY_NAME: IC50 (nM)

See these solved cases before continuing.
[[record]]
molecule = "CC(C)Oc1ccc(-c2nc3ccccc3c(=O)[nH]2)cc1"
numeric_result = 12

[[record]]
molecule = "COc1ccccc1-c1nc(O)c2ccccc2n1"
numeric_result = 10000

[[record]]
molecule = "O=c1[nH]c(-c2ccc3[nH]ncc3c2)nc2ccccc12"
numeric_result = 400


A = Nc1ccc(-c2nc3cc(Cl)ccc3c(=O)[nH]2)cc1
B = CN(CCO)c1ccc(-c2nc3ccccc3c(=O)[nH]2)cc1
Which value of IC50 is smaller, the one for A or the one for B ? Respond with the label that goes with your answer.
B

a = COc1ccc(-c2nc3ccccc3c(=O)[nH]2)c(Cl)c1O
b = CN(CCO)c1ccc(-c2nc3cc(Cl)ccc3c(=O)[nH]2)cc1
Sorting by IC50 in descending order, would a or b appear first? Give the label of your selection.
a
(a: 25500 nM, b: 660 nM)
